test_system: D(1A) dopamine receptor (Homo sapiens, UniProt P21728); also: assay procedure not described here
Sequence (P21728 whole entry): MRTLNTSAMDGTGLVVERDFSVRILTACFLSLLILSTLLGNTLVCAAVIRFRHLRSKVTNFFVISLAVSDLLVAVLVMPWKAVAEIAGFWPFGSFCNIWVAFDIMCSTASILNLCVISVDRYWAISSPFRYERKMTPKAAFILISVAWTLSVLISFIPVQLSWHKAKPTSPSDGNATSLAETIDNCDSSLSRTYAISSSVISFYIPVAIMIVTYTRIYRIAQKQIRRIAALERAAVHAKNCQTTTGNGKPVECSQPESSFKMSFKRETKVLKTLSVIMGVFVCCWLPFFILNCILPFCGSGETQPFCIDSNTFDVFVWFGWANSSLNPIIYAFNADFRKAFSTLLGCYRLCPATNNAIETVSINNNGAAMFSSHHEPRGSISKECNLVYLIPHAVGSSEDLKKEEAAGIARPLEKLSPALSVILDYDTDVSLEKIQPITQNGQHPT
endpoint: AC50 (µM)

CNC(=O)c1cc(Oc2ccc(NC(=O)Nc3ccc(Cl)c(C(F)(F)F)c3)c(F)c2)ccn1 | 5.61
CN1CCN(CCCN2c3ccccc3Sc3ccc(S(=O)(=O)N(C)C)cc32)CC1 | 0.13

* * *

test_system: B2 bradykinin receptor (Homo sapiens); also: assay procedure not described here
Sequence (P30411 whole entry): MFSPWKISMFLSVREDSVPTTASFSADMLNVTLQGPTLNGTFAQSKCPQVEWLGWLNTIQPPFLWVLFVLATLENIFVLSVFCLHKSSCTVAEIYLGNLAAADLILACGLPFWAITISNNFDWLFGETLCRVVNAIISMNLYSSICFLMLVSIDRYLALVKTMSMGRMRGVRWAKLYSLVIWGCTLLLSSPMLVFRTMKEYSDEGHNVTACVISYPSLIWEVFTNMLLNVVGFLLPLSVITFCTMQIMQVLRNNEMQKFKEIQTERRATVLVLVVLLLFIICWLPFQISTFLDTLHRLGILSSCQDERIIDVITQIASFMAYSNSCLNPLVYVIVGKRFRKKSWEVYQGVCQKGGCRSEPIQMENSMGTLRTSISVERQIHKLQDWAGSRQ
endpoint: AC50

COc1cccc2c1C(=O)c1c(O)c3c(c(O)c1C2=O)C[C@@](O)(C(C)=O)C[C@@H]3O[C@H]1C[C@H](N)[C@H](O)[C@H](C)O1 | > 10 µM
Nc1nc2c(c(=O)[nH]1)N(C=O)C(CNc1ccc(C(=O)N[C@@H](CCC(=O)O)C(=O)O)cc1)CN2 (some centres not stated) | > 30 µM
CCCC[C@H](C)C[C@H](O)/C=C/[C@H]1[C@H](O)CC(=O)[C@@H]1CCCC/C=C/C(=O)O | > 30 µM
O=C1CN=C(c2ccccc2)c2cc(Cl)ccc2N1 | > 30 µM
O=C1CN2Cc3c(ccc(Cl)c3Cl)N=C2N1 [ANAGRELIDE] | > 30 µM
CC1(C)C(C=C(Cl)Cl)C1C(=O)OCc1cccc(Oc2ccccc2)c1 (configuration not stated) | > 10 µM
CC(=O)S[C@@H]1CC2=CC(=O)CC[C@]2(C)[C@H]2CC[C@@]3(C)[C@@H](CC[C@@]34CCC(=O)O4)[C@H]12 | > 30 µM
CC1(C)C(/C=C/C=C/C=C/C=C2\N(CCCCS(=O)(=O)O)c3ccc4ccccc4c3C2(C)C)=[N+](CCCCS(=O)(=O)[O-])c2ccc3ccccc3c21 [INDOCYANINE GREEN ACID FORM] | 26 µM
CCCNC(C)C(=O)Nc1ccccc1C (configuration not stated) | > 30 µM
Clc1ccc2c(c1)C(c1ccccc1)=NCc1nncn1-2 | > 30 µM
COc1ccc(C(CN(C)C)C2(O)CCCCC2)cc1 (configuration not stated) | > 30 µM
CC(=O)/N=c1/sc(S(N)(=O)=O)nn1C [METHAZOLAMIDE] | > 10 µM
C=C[C@@]1(C)CC(=O)[C@]2(O)[C@@]3(C)[C@@H](O)CCC(C)(C)[C@@H]3[C@H](OC(=O)CCN(C)C)[C@H](OC(C)=O)[C@@]2(C)O1 | > 30 µM
O=c1oc2ccccc2c(O)c1Cc1c(O)c2ccccc2oc1=O | > 10 µM
Nc1ccc(C(=O)O)c(O)c1 | > 30 µM
CC(C)c1cc2c(cc1S(=O)(=O)O)[C@@]1(C)CCC[C@@](C)(C(=O)O)[C@@H]1CC2 | > 30 µM
NC(=O)CCC/N=C(\c1ccc(Cl)cc1)c1cc(F)ccc1O [PROGABIDE] | > 10 µM
Nc1ccn([C@@H]2O[C@H](CO)[C@@H](O)C2(F)F)c(=O)n1 | > 30 µM
CCn1cc(C(=O)O)c(=O)c2cc(F)c(N3CCN(C)CC3)cc21 | > 30 µM
C#C[C@]1(O)CC[C@H]2[C@@H]3CCc4cc(OC)ccc4[C@H]3CC[C@@]21C | > 10 µM
CC[C@@H](CO)NC(=O)[C@@H]1C=C2c3cccc4[nH]cc(c34)C[C@H]2N(C)C1 | > 30 µM
C#C[C@]1(O)CC[C@H]2[C@@H]3CCC4=CC(=O)CCC4=C3C=C[C@@]21CC | > 30 µM
CCC(C)(Oc1ccc(C2(c3ccc(OC(C)(CC)C(=O)O)cc3)CCCCC2)cc1)C(=O)O (configuration not stated) [CLINOFIBRATE] | > 30 µM
Cc1ccc(NC(=O)C2(c3ccc4c(c3)OC(F)(F)O4)CC2)nc1-c1cccc(C(=O)O)c1 | > 30 µM
N[C@H](Cc1cc(I)c(Oc2cc(I)c(O)c(I)c2)c(I)c1)C(=O)O | > 30 µM
COc1cc2c(Nc3ccc(Br)cc3F)ncnc2cc1OCC1CCN(C)CC1 | > 10 µM
CNCC[C@H](Oc1cccc2ccccc12)c1cccs1 | > 30 µM
COCCOC(=O)C1=C(C)NC(C)=C(C(=O)OC/C=C/c2ccccc2)C1c1cccc([N+](=O)[O-])c1 (configuration not stated) | > 30 µM
CN(C)c1cc(NC(=O)CNC(C)(C)C)c(O)c2c1C[C@H]1C[C@H]3[C@H](N(C)C)C(O)=C(C(N)=O)C(=O)[C@@]3(O)C(O)=C1C2=O | > 30 µM
CN(C)c1cc(CNCC(C)(C)C)c(O)c2c1C[C@H]1C[C@H]3[C@H](N(C)C)C(O)=C(C(N)=O)C(=O)[C@@]3(O)C(O)=C1C2=O | > 30 µM
CCN(CC)CCOC(=O)c1ccc(N)cc1Cl | > 30 µM
CC(C)=CCOc1ccc(/C=C/C(=O)c2ccc(OCC=C(C)C)cc2OCC(=O)O)cc1 | > 3 µM
